From: the supplement of paper PMC10567573

B1: KLHL13 (parent)
chain: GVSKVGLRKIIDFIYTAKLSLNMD

- Variants of: B1
- ASSAY_INFO: protein stability index of a GFP-peptide fusion (GPS, HEK-293T) (PSI 1-6); higher = more stable;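 note: lentivirally expressed fusions sorted by FACS into six bins by GFP to DsRed ratio, PSI derived from sequencing read proportions per bin multiplied by bin number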
- EXPERIMENTAL_CONDITIONS: c terminus: a fixed tail appended
Decision: protein stability index >= 3 yields y, all other cases yield n.

{"CHANGES": "L21N", "ASSIGNED_LABEL": "n"}

Answer whether protein stability index of M23T is greater than or equal to 3. n

Answer whether protein stability index of I11E is greater than or equal to 3. n

Answer whether protein stability index of F13V is greater than or equal to 3. y

Answer whether protein stability index of T16E is greater than or equal to 3. n

Answer whether protein stability index of Y15F is greater than or equal to 3. y

Answer whether protein stability index of F13C is greater than or equal to 3. n

Answer whether protein stability index of N22I is greater than or equal to 3. n

Answer whether protein stability index of T16Y is greater than or equal to 3. n

Answer whether protein stability index of D24Y is greater than or equal to 3. n

Answer whether protein stability index of K9D is greater than or equal to 3. y
